Kindly state normalized growth for each of the entries shown.
Test: chemical genetic growth profiling, strain panel (AID 1159580);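 further: tested at 20 µM; growth read once vehicle control cultures reached saturation at 30 °C; 1 = growth at the plate median or of vehicle wells; lower values mean less growth of the strain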
Conditions: S. cerevisiae deletion strains, growth OD, locus YDR335W, strain msn5, stronger effect = lower value
Out of some 5,500 compounds screened, about 2,000 (36%) were called active. About 18% were inconclusive and are not listed. Some of the results follow.
Please respond with just the number, no unit label.

// normalized growth value for `CCCCOc1cc(C(=O)NCCN(CC)CC)c2ccccc2n1` : 0.942

// normalized growth value for `CCCCCc1c2c(cc(O)c1C(=O)O)OC(=O)c1c(cc(OC)cc1C(=O)CCCC)O2` : 1

// normalized growth value for `O=c1cc(-c2ccc(O)cc2)oc2cc(O[C@@H]3O[C@H](CO)[C@@H](O)[C@H](O)[C@H]3O)cc(O)c12` : 1

// normalized growth value for C[C@@H]1O[C@@H](OC[C@H]2OC(Oc3c(-c4ccc(O)c(O)c4)oc4cc(O)cc(O)c4c3=O)[C@H](O)[C@@H](O)[C@@H]2O)[C@H](O)[C@H](O)[C@H]1O (some centres not stated) : 0.979

// normalized growth value for NC(=O)NCCCC(N)C(=O)O (configuration not stated) : 0.993

// normalized growth value for `COc1ccc(-c2cc(=O)c3c(O)cc(O[C@@H]4O[C@H](CO[C@H]5O[C@H](C)[C@@H](O)[C@H](O)[C@@H]5O)[C@@H](O)[C@H](O)[C@H]4O)cc3o2)cc1O` : 1.01

// normalized growth value for `COc1cc2occc2c2oc(=O)ccc12` : 0.968

// normalized growth value for `COc1ccc(-c2oc3cc(O[C@H]4O[C@H](CO)[C@@H](O)[C@H](O)[C@H]4O)c(OC)c(O)c3c(=O)c2OC)cc1O` : 1

// normalized growth value for OCC(O)C(O)C(O)C(O)C(O)CO (configuration not stated) : 0.993

// normalized growth value for `O=c1c(O)c(-c2ccc(O)c(O)c2)oc2c(O)c(O)cc(O)c12` : 0.994

// normalized growth value for `O=c1c(O)c(-c2ccc(O)cc2O)oc2cc(O)cc(O)c12` : 0.98

// normalized growth value for CC1O[C@@H](Oc2c(-c3ccc(O)c(O)c3)oc3cc(O)cc(O)c3c2=O)[C@H](O)[C@H](O)[C@H]1O (some centres not stated) : 1

---

Kindly state normalized growth for each of the entries shown.
Assay: chemical genetic growth profiling, strain panel (AID 1159580)
Conditions: S. cerevisiae deletion strains, growth OD, locus YIR030C, strain dcg1, stronger effect = lower value
Hit rate of the full screen: of about 5,500 compounds, about 2,000 (36%) were called active. Another 18% or so got no clear call; they are omitted. Some of the results follow.
Please respond with just the number, no unit label.

// normalized growth value for `CCCCCc1c2c(cc(O)c1C(=O)O)OC(=O)c1c(cc(OC)cc1C(=O)CCCC)O2` : 0.986

// normalized growth value for `COC(=O)c1c(C)cc(OC)cc1O` : 0.972

// normalized growth value for `C=C[C@H]1CN2CC[C@H]1C[C@@H]2[C@@H](OC(=O)OCC)c1ccnc2ccc(OC)cc12` : 1.02

// normalized growth value for `CCOC(=O)c1c(C)cc(O)cc1O` : 0.913

// normalized growth value for `O=C(O)C1=C[C@@H](O)[C@@H](O)[C@H](O)C1` : 0.999

// normalized growth value for `CCN1C[C@]2(C)CC[C@H](OC)[C@]34C2[C@H](O)[C@]2(OCO[C@@]25C[C@H](OC)[C@H]2C[C@]3(O)C5[C@H]2O)C14` : 1

// normalized growth value for CCCCCCC(C)OC(=O)COc1ccc(Cl)cc1Cl (stereo unspecified) : 0.996

// normalized growth value for CC(C)(C)NCC(O)c1cc(Cl)c(N)c(Cl)c1 (stereo unspecified) : 0.995

// normalized growth value for `CCOC(=O)c1c(C)cc(OC)cc1O` : 0.94

// normalized growth value for `CCOC(=O)NC1=C(C2CC2)C(=O)C(NC(=O)OCC)=C(C2CC2)C1=O` : 0.995

// normalized growth value for `COc1c2ccoc2cc2oc(=O)ccc12` : 0.818

---

Experiment: chemical genetic growth profiling, strain panel (AID 1159580);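 further: tested at 20 µM; growth read once vehicle control cultures reached saturation at 30 °C; 1 = growth at the plate median or of vehicle wells; lower values mean less growth of the strain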
Settings: S. cerevisiae deletion strains, growth OD, locus YDR502C, strain sam2, stronger effect = lower value
Among all 5,500 compounds or so, about 2,000 (36%) were called active. About 18% were inconclusive and are not listed. The list shows a part of the results.
parameter: normalized growth
Please respond with just the number, no unit label.

// normalized growth value for CC12CCC3c4ccc(OCc5ccccc5)cc4CCC3C1C[C@@H](O)[C@@H]2O (stereo partly specified) : 0.0938

// normalized growth value for `COc1ccc(Cl)cc1C(=O)NCCc1ccc(S(=O)(=O)NC(=O)NC2CCCCC2)cc1` : 0.989

// normalized growth value for COc1ccc2c(c1)CCC1C2CC[C@@]2(C)C1CC[C@@H]2O (stereo partly specified) : 0.757

// normalized growth value for `C[C@@H]([C@H](O)c1ccccc1)N(C)C` : 1.01

// normalized growth value for CNC(C)C(O)c1ccccc1 (stereo unspecified) : 1.02

// normalized growth value for C[C@]12CCC3c4ccc(O)cc4CCC3C1C[C@@H](O)[C@@H]2O (stereo partly specified) : 0.993

// normalized growth value for C[C@]12CCC3c4ccc(OS(=O)(=O)O)cc4CCC3C1CC[C@H]2O (stereo partly specified) : 0.986

// normalized growth value for COc1ccc2c3c1OC1C(O)CC=C4C(C2)N(C)CCC431 (stereo unspecified) : 1.01

// normalized growth value for `CC1=CC(=O)C2=C(C)CC[C@@H]3[C@H](OC(=O)[C@H]3C)[C@@H]12` : 0.983

// normalized growth value for `O=C(O)C1=C[C@@H](O)[C@@H](O)[C@H](O)C1` : 1.01

// normalized growth value for `CCCCCc1c2c(cc(O)c1C(=O)O)OC(=O)c1c(cc(OC)cc1C(=O)CCCC)O2` : 1.03

---

Kindly state normalized growth for each of the entries shown.
Experiment: chemical genetic growth profiling, strain panel (AID 1159580);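 further: tested at 20 µM; growth read once vehicle control cultures reached saturation at 30 °C; 1 = growth at the plate median or of vehicle wells; lower values mean less growth of the strain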
Conditions: S. cerevisiae deletion strains, growth OD, locus YAR019C, strain CDC15, stronger effect = lower value
Out of some 5,500 compounds screened, about 2,000 (36%) were called active. Another 18% or so got no clear call; they are omitted. Some of the results follow.
Please respond with just the number, no unit label.

// normalized growth value for `FC(F)(F)c1cccc(NC(=S)NN=C2CCCCCC2)c1` : 0.978

// normalized growth value for `CN(C)C=Nc1nnc(Sc2nc3c(Cl)cc(Cl)cc3s2)s1` : 0.959

// normalized growth value for `c1ccc(-c2nnc(-c3ccccn3)nc2-c2ccccc2)cc1` : 0.857

// normalized growth value for Cc1nnc2n1N=C(c1ccc(CC(C)C)cc1)C(C)S2 (stereo not drawn) : 0.971

// normalized growth value for `O=C1Nc2ccccc2/C1=C/c1ccc(C(F)(F)F)cc1Cl` : 0.978

// normalized growth value for `O=C(Nc1ccccc1)Nc1ccc(Cl)cc1[N+](=O)[O-]` : 0.977

// normalized growth value for `FC(F)(F)c1ccc(N2CCc3ccccc3C2)c(NC(=S)Nc2cc(Cl)cc(Cl)c2)c1` : 0.972

// normalized growth value for `O=C1Nc2ccccc2/C1=C\c1cccc([N+](=O)[O-])c1` : 0.974

---

Kindly state normalized growth for each of the entries shown.
Assay: chemical genetic growth profiling, strain panel (AID 1159580);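 further: tested at 20 µM; growth read once vehicle control cultures reached saturation at 30 °C; 1 = growth at the plate median or of vehicle wells; lower values mean less growth of the strain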
Settings: S. cerevisiae deletion strains, growth OD, locus YDR101C, strain arx1, stronger effect = lower value
The campaign covered roughly 5,500 compounds. About 2,000 (36%) were called active. About 18% were inconclusive and are not listed. Some of the results follow.
Please respond with just the number, no unit label.

// normalized growth value for `O=c1c(O)c(-c2ccc(O)cc2O)oc2cc(O)cc(O)c12` : 1

// normalized growth value for `COC(=O)c1c(C)cc(OC)cc1O` : 0.954

// normalized growth value for `COc1ccc(-c2oc3cc(O[C@H]4O[C@H](CO)[C@@H](O)[C@H](O)[C@H]4O)c(OC)c(O)c3c(=O)c2OC)cc1O` : 0.97

// normalized growth value for NC(=O)NCC(N)C(=O)O (centres undefined) : 0.975

// normalized growth value for `Cc1cc(OC(=O)c2c(C)cc(OC(=O)c3c(C)cc(O)cc3O)cc2O)cc(O)c1C(=O)O` : 0.971

// normalized growth value for `COc1ccc(-c2cc(=O)c3c(O)cc(O[C@@H]4O[C@H](CO[C@H]5O[C@H](C)[C@@H](O)[C@H](O)[C@@H]5O)[C@@H](O)[C@H](O)[C@H]4O)cc3o2)cc1O` : 1

// normalized growth value for `Cc1cc(OC(=O)c2c(C)cc(O)cc2O)cc(O)c1C(=O)O` : 0.977

// normalized growth value for `O=c1cc(-c2ccc(O)cc2)oc2cc(O[C@@H]3O[C@H](CO)[C@@H](O)[C@H](O)[C@H]3O)cc(O)c12` : 0.981

// normalized growth value for `CCCCCc1c2c(cc(O)c1C(=O)O)OC(=O)c1c(cc(OC)cc1C(=O)CCCC)O2` : 0.961
